Source: the RNAGym collection of RNA variant scans (doi:10.7554/elife.80360)

For each of the variants below, state its self-cleavage.
B1: HDV Ribozyme (parent)
chain: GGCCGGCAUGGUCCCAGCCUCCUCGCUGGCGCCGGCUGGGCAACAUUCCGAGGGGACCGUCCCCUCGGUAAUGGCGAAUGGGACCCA

Variants of: B1
Experiment: self-cleavage, relative activity (ratio to wild type); higher = more cleavage; co-transcriptional
One number for each entry.

Some variants with recorded self-cleavage:
* GGCCGGCAUGGUCCCAGCCUCCUCGCUGGCGCCGGCUGGGCAACAUACCGAGGGGACCGUCCCCUCGGUAAUGGCGAGUGGGACCCA [U47A A78G] | 0.831
* GGCCGGCAUGGUCCCAGCCUCCUCGCUGGCGCCGGCAGGGCAACAUUCCGAGGGGACCGUCCCCUCGGUAAUGGCGAAUGGGACCCA [U37A] | 0.216
* GUCCGGCAUGUUCCCAGCCUCCUCGCUGGCGCCGGCUGGGCAACAUUCCGAGGGGACCGUCCCCUCGGUAAUGGCGAAUGGGACCCA [G2U G11U] | 0.0529
* GGCCGGCAUGGUCCCAGCCUCCUCGCUGGCGCCGGCUGGGCAACAUUCCGAGGGGACCGUCCCCUCGGUAAUGGCGGAUGGCACCCA [A77G G82C] | 0.389
* GGCCGGCAUGGUCCCAGCCUCCUCGCUGGCGCCGGCUGGGCAACAUUCCGAGGGGACCGUCCCCUCAGUAAUGGCGAAUGGGACCCC [G67A A87C] | 0.956

Each variant below has a recorded value; state its self-cleavage.
1. GGCCGGCAUGGUCCCAGCCUCCUCGCUGGCGCCGGCUGGGCAACAUUCCGAGGUGACCGUCCCCUCGGUAAUGCCGAAUGGGACCCA [G54U G74C]
2. GGCCGGCAUGGUCCCAGGCUCCUCGCUGGCGCCGGCUGGGCAUCAUUCCGAGGGGACCGUCCCCUCGGUAAUGGCGAAUGGGACCCA [C18G A43U]

[0.182, 0.189]
